In this section, each of the molecules is paired with its reported mu.
Experiment: Folding and unfolding kinetics (Chevron plot, stopped-flow CD, GuHCl)
Format: physicochemical
Details: slope of ln(ku) vs GuHCl

{"molecule": "SYM6/Δ120-122: SYM6 FGF-1 mutant plus Arg119→Gly/ΔGly120/ΔPro121/ΔArg122 (protein, UniProt P05230 16-155, looked up, variant L44F M67I L73V V109L L111I C117V R119G del120-122) Fibroblast growth factor 1: FNLPPGNYKKPKLLYCSNGGHFLRILPDGTVDGTRDRSDQHIQFQLSAESVGEVYIKSTETGQYLAIDTDGLVYGSQTPNEECLFLERLEENHYNTYISKKHAEKNWFLGIKKNGSVKGTHYGQKAILFLPLPVSSD", "mu (M⁻¹)": 0.86}
{"molecule": "SYM5: FGF-1 core mutant Leu44→Phe/Leu73→Val/Val109→Leu/Leu111→Ile/Cys117→Val (protein, UniProt P05230 16-155, looked up, variant L44F L73V V109L L111I C117V) Fibroblast growth factor 1: FNLPPGNYKKPKLLYCSNGGHFLRILPDGTVDGTRDRSDQHIQFQLSAESVGEVYIKSTETGQYLAMDTDGLVYGSQTPNEECLFLERLEENHYNTYISKKHAEKNWFLGIKKNGSVKRGPRTHYGQKAILFLPLPVSSD", "mu (M⁻¹)": 0.57}
{"molecule": "SYM5/Δ104-106: SYM5 FGF-1 mutant plus Ala103→Gly/ΔGlu104/ΔLys105/ΔAsn106 (protein, UniProt P05230 16-155, looked up, variant L44F L73V V109L L111I C117V A103G del104-106) Fibroblast growth factor 1: FNLPPGNYKKPKLLYCSNGGHFLRILPDGTVDGTRDRSDQHIQFQLSAESVGEVYIKSTETGQYLAMDTDGLVYGSQTPNEECLFLERLEENHYNTYISKKHGWFLGIKKNGSVKRGPRTHYGQKAILFLPLPVSSD", "mu (M⁻¹)": 0.95}
